Field: IC50 at 72 h. Provide a value for each of the compounds that follow.
- assay-overview: Cytotoxicity against human HEK293 cells assessed as reduction in cell viability incubated for 72 hrs by MTT assay
- Assay type: toxicity, cell-based
Numbered stars: 1 amine (or outer) side, 2 acyl side, 3 side chain; on linkers, the order of the positions; unused ones are H or OH. Bridge positions count the residues as written; N and C are the ends. Square brackets hold non-standard residues; d marks the D form. Peptide text beside a SMILES is read from it. Trp(2-yl) = O=C([C@H](Cc1c([*:3])[nH]c2ccccc12)N[*:1])[*:2]; Ile(4R-OH,5-OH) = C[C@H]([C@H](N)C(=O)O)[C@@H](O)CO; X3 = C[C@H](S[*:3])[C@H](N[*:1])C(=O)[*:2]; X1 = CS[C@H](C)[C@H](N[*:1])C(=O)[*:2]; Nva(3-Et) = CCC(CC)[C@H](N)C(=O)O; αMeI = CC[C@H](C)[C@](C)(N)C(=O)O; Hyp = O=C(O)[C@@H]1C[C@@H](O)CN1; azaGly = NNC(=O)O
Numbers only, in nM.

Take a look at these entries with their results.
compound | obs-value
CCC(CC)[C@@H]1NC(=O)CNC(=O)[C@@H]2Cc3c([nH]c4ccccc34)SC[C@H](NC(=O)CNC1=O)C(=O)N[C@@H](CC(N)=O)C(=O)N1C[C@H](O)C[C@H]1C(=O)N[C@@H]([C@@H](C)[C@@H](O)CO)C(=O)N2 (cyclo(CN[Hyp][Ile(4R-OH,5-OH)][Trp(2-yl)]G[Nva(3-Et)]G); thioether 1-5) | 370
CC[C@H](C)[C@]1(C)NC(=O)NNC(=O)[C@@H]2Cc3c([nH]c4ccccc34)SC[C@H](NC(=O)CNC1=O)C(=O)N[C@@H](CC(N)=O)C(=O)N1C[C@H](O)C[C@H]1C(=O)N[C@@H]([C@@H](C)[C@@H](O)CO)C(=O)N2 (cyclo(CN[Hyp][Ile(4R-OH,5-OH)][Trp(2-yl)][azaGly][αMeI]G); thioether 1-5) | 450
CS[C@H](C)[C@@H]1NC(=O)CNC(=O)[C@@H]2Cc3c([nH]c4ccccc34)SC[C@H](NC(=O)CNC1=O)C(=O)N[C@@H](CC(N)=O)C(=O)N1C[C@H](O)C[C@H]1C(=O)N[C@@H]([C@@H](C)[C@@H](O)CO)C(=O)N2 (cyclo(CN[Hyp][Ile(4R-OH,5-OH)][Trp(2-yl)]G[X1]G); thioether 1-5) | 1500

Consider the additional compound presented here.
**Query** Quick one: IC50 at 72 h of CCC(CC)[C@@H]1NC(=O)CNC(=O)[C@@H]2Cc3c([nH]c4ccccc34)S[C@@H](C)[C@H](NC(=O)CNC1=O)C(=O)N[C@@H](CC(N)=O)C(=O)N1C[C@H](O)C[C@H]1C(=O)N[C@@H]([C@@H](C)[C@@H](O)CO)C(=O)N2 (cyclo(G[Nva(3-Et)]G[X3]N[Hyp][Ile(4R-OH,5-OH)][Trp(2-yl)]); thioether 4-8) ?
**Result** 200

* * *

- Test system: HeLa
- assay-overview: Cytotoxicity against human HeLa cells assessed as reduction in cell viability incubated for 72 hrs by MTT assay
- Format: functional, cell-based
Numbered stars: 1 amine (or outer) side, 2 acyl side, 3 side chain; on linkers, the order of the positions; unused ones are H or OH. Bridge positions count the residues as written; N and C are the ends. Square brackets hold non-standard residues; d marks the D form. Peptide text beside a SMILES is read from it. Trp(2-yl) = O=C([C@H](Cc1c([*:3])[nH]c2ccccc12)N[*:1])[*:2]; Ile(4R-OH,5-OH) = C[C@H]([C@H](N)C(=O)O)[C@@H](O)CO; X3 = C[C@H](S[*:3])[C@H](N[*:1])C(=O)[*:2]; Nva(3-Et) = CCC(CC)[C@H](N)C(=O)O; Hyp = O=C(O)[C@@H]1C[C@@H](O)CN1
assay-readout: IC50

**Query** If you can, please state the reported IC50 value of CCC(CC)[C@@H]1NC(=O)CNC(=O)[C@@H]2Cc3c([nH]c4ccccc34)S[C@@H](C)[C@H](NC(=O)CNC1=O)C(=O)N[C@@H](CC(N)=O)C(=O)N1C[C@H](O)C[C@H]1C(=O)N[C@@H]([C@@H](C)[C@@H](O)CO)C(=O)N2 (cyclo(G[Nva(3-Et)]G[X3]N[Hyp][Ile(4R-OH,5-OH)][Trp(2-yl)]); thioether 4-8) .
**Result** 600 nM

* * *

What IC50 at 72 h was measured for each of the following?
- assay-overview: Cytotoxicity against chinese hamster CHO cells assessed as reduction in cell viability incubated for 72 hrs by MTT assay
- Assay type: toxicity, cell-based, Cricetulus griseus
Numbered stars: 1 amine (or outer) side, 2 acyl side, 3 side chain; on linkers, the order of the positions; unused ones are H or OH. Bridge positions count the residues as written; N and C are the ends. Square brackets hold non-standard residues; d marks the D form. Peptide text beside a SMILES is read from it. Trp(2-yl) = O=C([C@H](Cc1c([*:3])[nH]c2ccccc12)N[*:1])[*:2]; X4 = O=C([C@H](Cc1c([*:3])[nH]c2ccc(O)cc12)N[*:1])[*:2]; Ile(4R-OH,5-OH) = C[C@H]([C@H](N)C(=O)O)[C@@H](O)CO; X3 = C[C@H](S[*:3])[C@H](N[*:1])C(=O)[*:2]; Nva(3-Et) = CCC(CC)[C@H](N)C(=O)O; αMeI = CC[C@H](C)[C@](C)(N)C(=O)O; Hyp = O=C(O)[C@@H]1C[C@@H](O)CN1; azaGly = NNC(=O)O
One number for each entry, in nM.

Some compounds with recorded IC50 at 72 h:
compound | obs-value
CCC(CC)[C@@H]1NC(=O)CNC(=O)[C@@H]2Cc3c([nH]c4ccc(O)cc34)SC[C@H](NC(=O)CNC1=O)C(=O)N[C@@H](CC(N)=O)C(=O)N1C[C@H](O)C[C@H]1C(=O)N[C@@H]([C@@H](C)[C@@H](O)CO)C(=O)N2 (cyclo(CN[Hyp][Ile(4R-OH,5-OH)][X4]G[Nva(3-Et)]G); thioether 1-5) | 2500
CC[C@H](C)[C@@H]1NC(=O)CNC(=O)[C@@H]2Cc3c([nH]c4ccccc34)S[C@@H](C)[C@H](NC(=O)CNC1=O)C(=O)N[C@@H](CC(N)=O)C(=O)N1C[C@H](O)C[C@H]1C(=O)N[C@@H]([C@@H](C)[C@@H](O)CO)C(=O)N2 (cyclo(GIG[X3]N[Hyp][Ile(4R-OH,5-OH)][Trp(2-yl)]); thioether 4-8) | 1300
C[C@H]([C@@H]1NC(=O)[C@@H]2C[C@@H](O)CN2C(=O)[C@H](CC(N)=O)NC(=O)[C@@H]2CSc3[nH]c4ccccc4c3C[C@H](NC1=O)C(=O)NCC(=O)N[C@H](C1CCCC1)C(=O)NCC(=O)N2)[C@@H](O)CO | 6900
CCC(CC)[C@@H]1NC(=O)CNC(=O)[C@@H]2Cc3c([nH]c4ccccc34)S[C@@H](C)[C@H](NC(=O)CNC1=O)C(=O)N[C@@H](CC(N)=O)C(=O)N1C[C@H](O)C[C@H]1C(=O)N[C@@H]([C@@H](C)[C@@H](O)CO)C(=O)N2 (cyclo(G[Nva(3-Et)]G[X3]N[Hyp][Ile(4R-OH,5-OH)][Trp(2-yl)]); thioether 4-8) | 610

Hi team, please reply with IC50 at 72 h for each item in this list.
1. CCC(CC)[C@@H]1NC(=O)CNC(=O)[C@@H]2Cc3c([nH]c4ccc(O)cc34)S[C@@H](C)[C@H](NC(=O)CNC1=O)C(=O)N[C@@H](CC(N)=O)C(=O)N1C[C@H](O)C[C@H]1C(=O)N[C@@H]([C@@H](C)[C@@H](O)CO)C(=O)N2 (cyclo(G[Nva(3-Et)]G[X3]N[Hyp][Ile(4R-OH,5-OH)][X4]); thioether 4-8)
2. CC[C@H](C)[C@@H]1NC(=O)CNC(=O)[C@@H]2Cc3c([nH]c4ccccc34)SC[C@H](NC(=O)CNC1=O)C(=O)N[C@@H](CC(N)=O)C(=O)N1C[C@H](O)C[C@H]1C(=O)N[C@@H]([C@@H](C)[C@@H](O)CO)C(=O)N2 (cyclo(CN[Hyp][Ile(4R-OH,5-OH)][Trp(2-yl)]GIG); thioether 1-5)
3. CCC(CC)[C@@H]1NC(=O)CNC(=O)[C@@H]2Cc3c([nH]c4ccccc34)SC[C@H](NC(=O)CNC1=O)C(=O)N[C@@H](CC(N)=O)C(=O)N1C[C@H](O)C[C@H]1C(=O)N[C@@H]([C@@H](C)[C@@H](O)CO)C(=O)N2 (cyclo(CN[Hyp][Ile(4R-OH,5-OH)][Trp(2-yl)]G[Nva(3-Et)]G); thioether 1-5)
4. CC[C@H](C)[C@@H]1NC(=O)CNC(=O)[C@@H]2Cc3c([nH]c4ccc(O)cc34)S[C@@H](C)[C@H](NC(=O)CNC1=O)C(=O)N[C@@H](CC(N)=O)C(=O)N1C[C@H](O)C[C@H]1C(=O)N[C@@H]([C@@H](C)[C@@H](O)CO)C(=O)N2 (cyclo(GIG[X3]N[Hyp][Ile(4R-OH,5-OH)][X4]); thioether 4-8)

**Result**
1: 2400; 2: 1300; 3: 780; 4: 6900

Hi, could you look up IC50 at 72 h for each item in my list?
1. CC[C@H](C)[C@@H]1NC(=O)CNC(=O)[C@@H]2Cc3c([nH]c4cc(O)ccc34)[S+]([O-])C[C@H](NC(=O)CNC1=O)C(=O)N[C@@H](CC(N)=O)C(=O)N1C[C@H](O)C[C@H]1C(=O)N[C@@H]([C@@H](C)[C@@H](O)CO)C(=O)N2 (some centres not stated)
2. CC[C@H](C)[C@]1(C)NC(=O)NNC(=O)[C@@H]2Cc3c([nH]c4ccccc34)SC[C@H](NC(=O)CNC1=O)C(=O)N[C@@H](CC(N)=O)C(=O)N1C[C@H](O)C[C@H]1C(=O)N[C@@H]([C@@H](C)[C@@H](O)CO)C(=O)N2 (cyclo(CN[Hyp][Ile(4R-OH,5-OH)][Trp(2-yl)][azaGly][αMeI]G); thioether 1-5)

**Result**
1000
2400
